- test target: human neuronal α7 nAChR (human, UniProt P36544 23-502)
- Sequence (P36544 23-502): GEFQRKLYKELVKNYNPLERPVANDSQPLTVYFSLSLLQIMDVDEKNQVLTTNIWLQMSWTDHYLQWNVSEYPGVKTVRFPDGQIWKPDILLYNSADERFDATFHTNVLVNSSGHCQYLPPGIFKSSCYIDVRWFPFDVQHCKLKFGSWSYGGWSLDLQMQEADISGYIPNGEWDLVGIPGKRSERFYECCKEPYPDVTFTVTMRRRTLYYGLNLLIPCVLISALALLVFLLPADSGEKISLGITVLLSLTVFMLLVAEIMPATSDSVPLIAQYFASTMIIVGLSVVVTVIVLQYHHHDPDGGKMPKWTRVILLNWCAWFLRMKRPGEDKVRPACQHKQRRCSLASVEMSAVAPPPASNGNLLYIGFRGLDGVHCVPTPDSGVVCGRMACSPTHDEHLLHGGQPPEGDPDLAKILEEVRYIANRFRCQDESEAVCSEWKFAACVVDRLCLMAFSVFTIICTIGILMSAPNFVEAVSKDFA
- experiment summary: competition with α-bungarotoxin
Ends that are not written are not given here.
value kind: pIC50
Scale: pIC50 equals -log10([C]), with [C] in mol/L.

Request the reported pIC50 associated with DNWWPKPPHQGPRPPRPRPKP (not fully specified, source: synthetic peptide) [azemiopsin]
4.66
